Target Or System: mouse P2Y12 (Mus musculus)
Sequence (Q9CPV9 whole entry): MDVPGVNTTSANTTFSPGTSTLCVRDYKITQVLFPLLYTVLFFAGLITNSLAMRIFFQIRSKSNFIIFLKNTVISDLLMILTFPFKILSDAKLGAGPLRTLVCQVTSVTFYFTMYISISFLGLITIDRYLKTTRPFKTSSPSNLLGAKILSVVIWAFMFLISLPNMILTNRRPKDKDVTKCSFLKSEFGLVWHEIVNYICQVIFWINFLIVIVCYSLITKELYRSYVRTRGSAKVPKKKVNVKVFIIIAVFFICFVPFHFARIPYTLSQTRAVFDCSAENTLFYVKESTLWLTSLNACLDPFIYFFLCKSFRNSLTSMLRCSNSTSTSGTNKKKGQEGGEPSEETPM
Test Method Notes: Agonist-induced release of intracellular calcium (FLIPR) in NIH3T3 cells expressing mouse P2Y12 and chimeric Gαq/i3
Test Context: FLIPR, NIH3T3 Gαq/i3 cells; read-out: EC50 for ADP stimulation of the mouse P2Y12 dependent release of intracellular calcium
Endpoint Name: pEC50
One number for each entry, as −log10 of the molar value.

Enter measured pEC50, system mouse P2Y12 (Mus musculus), for the molecule shown: `Nc1ncnc2c1ncn2[C@@H]1O[C@H](COP(=O)(O)OP(=O)(O)O)[C@@H](O)[C@H]1O`
7.57
